Molecular target: H3.3(G90M)/H4 (human | X. laevis, UniProt P62799 1-103)
Test: ITC

{"binder": "IQDLIDMGYGYDESDSFIDNSEAYDEL [UBN1(122–148) peptide]", "Kd, µM": 115}
